- target of assay: Angiotensin-converting enzyme
- method summary: Concentration required to inhibit the activity of Angiotensin I converting enzyme by 50%
pIC50: −log10 of the molar value.
Assign class by pIC50: not lower than 7 means criterion met; lower than 7 means criterion not met.

Examples with answers:
- O=C(NC(Cc1ccc(O)cc1)C(=O)CCC(=O)N1CCC[C@H]1C(=O)O)c1ccccc1 (stereo not given in full): criterion met
- O=C(NC(Cc1ccccc1)C(=O)CCC(=O)N1CCC[C@H]1C(=O)O)OCc1ccccc1 (stereo not given in full): criterion not met
- NC(Cc1ccccc1)C(=O)CCC(=O)N1CCC[C@H]1C(=O)O (stereo not given in full): criterion not met

Now examine the next entry.
Has O=C(CCC(=O)C(Cc1ccccc1)NC(=O)c1ccccc1)NC(Cc1ccccc1)C(=O)OCc1ccccc1 (stereo not given) a recorded pIC50 greater than or equal to 7?
criterion not met

====

- target of assay: Angiotensin-converting enzyme
- method summary: Concentration required to inhibit the activity of Angiotensin I converting enzyme by 50%
measured quantity: pIC50
Expect pIC50 as a plain number equal to -log10 of the molar concentration.

Here are 3 molecules together with their reported answers.
* O=C(NC(Cc1ccccc1)=C(CCC(=O)N1CCC[C@H]1C(=O)O)NO)c1ccccc1 | 5.92
* O=C(NC(Cc1ccc(OCc2ccccc2)cc1)C(=O)CCC(=O)N1CCC[C@H]1C(=O)OCc1ccccc1)c1ccccc1 (stereo not given in full) | 7.07
* O=C(NC(Cc1cccnc1)C(=O)CCC(=O)N1CCC[C@H]1C(=O)O)c1ccccc1 (stereo not given in full) | 8.24

Query (molecule): O=C(NC(Cc1cccnc1)C(=O)CCC(=O)N1CCC[C@H]1C(=O)OCc1ccccc1)c1ccccc1 (stereo not given in full) ; field requested: pIC50
7.82

Now consider COc1ccc(CC(NC(=O)c2ccccc2)C(=O)CCC(=O)N2CCC[C@H]2C(=O)O)cc1OC (stereo not given in full) .
8.85

What do you get for O=C(NC(Cc1ccccc1)C(=O)CCC(=O)N1CCC[C@H]1C(=O)O)c1ccco1 (stereo not given in full) ?
8.85

Also CC(C)(C)OC(=O)[C@@H]1CCCN1C(=O)CCC(=O)C(Cc1ccc(OCc2ccccc2)cc1)NC(=O)c1ccccc1 (stereo not given in full) , if possible.
5.07

Repeat for the following molecule: O=C(NC(Cc1ccc(OCc2ccccc2)cc1)C(=O)CCC(=O)N1CCC[C@H]1C(=O)O)c1ccccc1 (stereo not given in full)
8.00

====

Listed compounds paired with reported IC50
- target of assay: Angiotensin-converting enzyme
- method summary: Concentration required to inhibit the activity of Angiotensin I converting enzyme by 50%
Give the value in nM but do not write nM after it.

* Cc1ccccc1C(=O)NC(Cc1ccccc1)C(=O)CCC(=O)N1CCC[C@H]1C(=O)O (some centres not stated) | 46
* CC(=O)NC(Cc1ccccc1)C(=O)CCC(=O)N1CCC[C@H]1C(=O)O (some centres not stated) | 330

Need IC50, item Cc1ccccc1C(=O)NC(Cc1ccccc1)C(=O)CCC(=O)N1CCC[C@H]1C(=O)OCc1ccccc1 (some centres not stated)
1600

Ok, now O=C(NC(Cc1ccccc1)C(=O)CCCC(=O)N1CCC[C@H]1C(=O)O)c1ccccc1 (some centres not stated)
42

Now the compound CC(NC(=O)c1ccccc1)C(=O)CCC(=O)N1CCC[C@H]1C(=O)O (some centres not stated)
300

Would you mind doing O=C(CCC(=O)N1CCC[C@H]1C(=O)O)C(Cc1ccccc1)NC(=O)C1CCCO1 (some centres not stated) as well?
20

O=C(CCC(=O)C(Cc1ccccc1)NC(=O)c1ccccc1)N[C@H](Cc1ccccc1)C(=O)O (some centres not stated) , same question.
28
